Tested on: UO-31 renal
Classes used: Y (active), N (inactive)

Input smiles | Class label
C/C(=N\NC(=O)c1ccc(C(C)(C)C)cc1)c1ccc(O)cc1O | Y
COc1cc(C(=O)N2CCN(c3ccccn3)CC2)c(N)cc1OCc1ccccc1 | N
O=C(CI)OCC(COC(=O)CI)OC(=O)CI | N
COc1ccc(-c2nn(C(=O)NCCN(C)C)cc2-c2ccncc2)cc1Cl | N
Cc1ccc(/C=C2\COc3ccc(O)c(O)c3C2=O)cc1 | N
CCOC(=O)c1ccc2c(c1)nc(-c1ccc(Cl)cc1)n2-c1cc(C(C)(C)C)[nH]n1 | N
CCC(=O)O[C@@H]([C@H](C)[C@H]1OC(CC)=C(C)C(=O)[C@@H]1C)[C@@H](C)C(=O)CC | N

###

Tested on: HS 578T breast
Assay: NCI tumour cell line growth inhibition, 48 h; in the data active = GI50 below about 0.43 µM; inactive = the rest
Possible outcomes: yes (1) (active), no (0) (inactive)

Input smiles | Class label
Cc1ccc(/C=C2\COc3ccc(O)c(O)c3C2=O)cc1 | yes (1)
O=C(O)CN(CCN(CC(=O)O)CC(=O)O)CC(=O)O | no (0)
CCCCCCCCCCCCCCCCSC(=NCC)NCC | no (0)

###

Tested on: MDA-MB-231 breast
Assay: NCI tumour cell line growth inhibition, 48 h; in the data active = GI50 below about 0.43 µM; inactive = the rest
Outcomes: T (active), F (inactive)

Molecule | Class label
CCSC(=O)N1c2ccc(OC)cc2C=CC1C#N (configuration not stated) | F
Cc1ccc(/C=C2\COc3ccc(O)c(O)c3C2=O)cc1 | T
CC12OC(CC(O)C1O)n1c3ccccc3c3c4c(c5c6ccccc6n2c5c31)C(=O)N(CCN1CCCC1)C4=O (configuration not stated) | F
Cc1ccc(C(=Nc2ccccc2)N=P(c2ccccc2)(c2ccccc2)c2ccccc2)cc1 | F
COc1ccc(C(=O)/C=C/c2c(OC)cc(OC)cc2OC)c(OC)c1 | F
O=C1c2ccccc2C(=O)c2c(Nc3ccc(CCO)cc3)ccc(O)c21 | F
CCOC(=O)C1=C(C)N=C2SC=C(c3ccccc3)N2[C@H]1c1cn[nH]c1-c1ccc(Cl)cc1 | F

###

Test system: MOLT-4 leukemia
Experiment: NCI tumour cell line growth inhibition, 48 h
# key: entry, value: TGI
Quantity: TGI

Molecule | Tested system | Quantity | Measured value
NC1CCCCC1 | MOLT-4 leukemia | TGI | > 562 µM
O=C1N[C@H](Cc2cnc[nH]2)C(=O)N2CCC[C@@H]12 | MOLT-4 leukemia | TGI | > 100 µM
O=C1/C(=N\O)C2CCC1C2 (stereo unspecified) | MOLT-4 leukemia | TGI | > 100 µM
CCC(=O)O[C@@H]([C@H](C)[C@H]1OC(CC)=C(C)C(=O)[C@@H]1C)[C@@H](C)C(=O)CC | MOLT-4 leukemia | TGI | > 100 µM
c1ccc2nc3c(cc2c1)Sc1cc2ccccc2[n+]2c1N3CC2 | MOLT-4 leukemia | TGI | > 100 µM
Cc1cccc2c1CC1(Cc3ccccc3C1=O)C2=O (stereo unspecified) | MOLT-4 leukemia | TGI | > 100 µM

###

Listed next: entries and their corresponding TGI.
Test system: SNB-75 CNS
Test: NCI tumour cell line growth inhibition, 48 h
Quantity: TGI (µM)

Molecule | Tested system | Quantity | Comparative sign | Measured value
Cc1cc2c(cc1C)[n+](=O)c(C(=O)C(C)(C)C)c(C(F)(F)F)n2[O-] | SNB-75 CNS | TGI | > | 100
CCCCCCCC/C=C(\Br)C(O)C(Br)Br (stereo not given) | SNB-75 CNS | TGI | > | 100
COc1ccc(-c2nn(C(=O)NCCN(C)C)cc2-c2ccncc2)cc1Cl | SNB-75 CNS | TGI | = | 6.19
COc1ccc(NC(=O)CC(=O)NN)cc1 | SNB-75 CNS | TGI | > | 100
COc1ccc(N2C(=O)/C(=C/c3ccc(N(CCC#N)CCC#N)cc3C)N=C2/C=C\c2ccccc2)cc1 | SNB-75 CNS | TGI | > | 100
CC(C)CC(NC(=O)C(CSc1ccc([N+](=O)[O-])cc1)Cc1ccccc1)C(=O)Nc1ccccc1 (stereo not given) | SNB-75 CNS | TGI | = | 65.1
CCCCN(CCCC)CC(O)c1cc(-c2ccc(Cl)c(Cl)c2)nc2c(Cl)cc(Cl)cc12 (stereo not given) | SNB-75 CNS | TGI | > | 100
OCCN(CCO)CCn1cnc2c(NCc3ccccc3)ncnc21 | SNB-75 CNS | TGI | > | 100
CCSC(=O)N1c2ccc(OC)cc2C=CC1C#N (stereo not given) | SNB-75 CNS | TGI | > | 1000
CC(C)=CC1CC(=O)C1(C)Sc1ccccc1 (stereo not given) | SNB-75 CNS | TGI | > | 100
CC(C)Cc1ccc(C(C)C(=O)NCc2ccc(Cn3c(=O)sn(CCCCl)c3=O)cc2)cc1 (stereo not given) | SNB-75 CNS | TGI | = | 2.04
COC(=O)C1(Cc2ccccc2)Cc2cc3c(cc2C1)CCC3 | SNB-75 CNS | TGI | = | 95.4
OCc1cn(Cc2ccc(Cl)cc2)c2ccccc12 | SNB-75 CNS | TGI | = | 19.9
CCOc1ccc(Nc2nc(C)c(C(=O)/C=C/c3ccc(Cl)cc3Cl)s2)cc1 | SNB-75 CNS | TGI | = | 39.3
Cc1nc(N)nc(N)c1CCCCc1ccccc1 | SNB-75 CNS | TGI | > | 100
